# Assay Overview: NCI Yeast Anticancer Drug Screen. Data for the rad18 strain (AID 177)
# Condition Info: S. cerevisiae rad18 mutant growth inhibition; at 11.0 µM; active compounds read high
About 79,000 compounds went through this panel and 15% of them were active in at least one assay; those are over-represented in the sample as a whole. The source made the active and inactive calls. Rule as the data show it: active = growth inhibition above about 70%; inactive = the rest.
growth inhibition values by entry

// below: answered molecules
{"Molecule": "C[C@@](O)(/C=C/[C@H]1CC=CC(=O)O1)[C@@H](C[C@@H](O)\\C=C/C=C\\C=C\\CO)OP(=O)(O)O", "growth inhibition": "41% (inactive)"}
{"Molecule": "O=C1NC(SSC2=NNC3(C(=O)N2)c2ccccc2-c2ccccc23)=NNC12c1ccccc1-c1ccccc12", "growth inhibition": "5% (inactive)"}
{"Molecule": "COc1nc2c(c(=O)n1C)N=C(c1ccccc1)[C@H](C(CC(=O)c1ccccc1)c1ccccc1)C(c1ccccc1)N2 (some centres undefined)", "growth inhibition": "50% (inactive)"}

Report growth inhibition for Oc1[nH]c2ccccc2c1N=NC(=S)N1CCCCC1
24% (inactive)

Report growth inhibition for O=P(NC1CCCCC1)(OCc1ccccc1)OCc1ccccc1
13% (inactive)

Report growth inhibition for COc1cc(/C=C2\NC(=O)N(/C=C3\C(=O)Oc4ccccc4C3=O)C2=O)ccc1O
-1% (inactive)

Report growth inhibition for Cn1c(-c2ccc(/C=N\N3CCN(/N=C/c4ccc(-c5c[n+]6ccccc6n5C)cc4)CC3)cc2)c[n+]2ccccc12
-31% (inactive)

Report growth inhibition for CCN(CC)CCOc1cc(C)c2cc(Cc3ccccc3)ccc2n1
28% (inactive)

Report growth inhibition for C=C1C(=O)OC2CC1C(OC(C)=O)C/C(C)=C/CC/C(C)=C\CCC2(C)O (centres undefined)
15% (inactive)

* * *

# Assay Overview: NCI Yeast Anticancer Drug Screen. Data for the cln2 rad14 strain (AID 165);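 also: 0% = growth equal to vehicle treated cultures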
# Condition Info: S. cerevisiae cln2 rad14 strain, at 50.0 µM (retest, dose inferred, filed as 5.0)
# Procedure: Growth inhibition of yeast strains with defined genetic alterations is measured as a screen for potential anti-cancer activity. Selected strains with alterations in DNA damage repair or cell cycle control were exposed to compounds and growth inhibition was measured relative to vehicle treated controls. The strain used in this assay is cln2 rad14
The panel holds about 79,000 compounds, 15% with a hit somewhere; the sample as a whole holds those more often. Activity calls are given as the source filed them. Rule as the data show it: active = growth inhibition above about 70%; inactive = the rest.
Your response should consist of one outcome taken from yes (1) = active, no (0) = inactive

{"Compound": "CCO/C(C)=C(/C#N)C(N)=S", "Class Label": "no (0)"}
{"Compound": "CCCC/C([O-])=C1/C(=O)N(c2ccccc2)N=C1C.CCCC/C([O-])=C1/C(=O)N(c2ccccc2)N=C1C.[Cu+2]", "Class Label": "no (0)"}

What outcome does the record of this test show for CCOC(=O)c1[nH]n(-c2ccccc2)c(=O)c1C=NC(=S)C(N)=S ?
no (0)

What outcome does the record of this test show for CC(=O)OCC1OC2OC(=O)NC2C(OC(C)=O)C1OC(C)=O (stereo not given) ?
no (0)

What outcome does the record of this test show for Nc1nc(N)c2nc(CNc3ccc(C(=O)NC(CCC(=O)O)C(=O)O)cc3F)cnc2n1 (stereo not given) ?
no (0)

* * *

# Assay Overview: NCI Yeast Anticancer Drug Screen. Data for the mec2-1 strain (AID 157)
# Condition Info: S. cerevisiae mec2-1 strain, at 1.2 µM, active compounds read high
Compounds without any hit were thinned out: in the full panel of roughly 79,000, 15% have a hit.
Endpoint: growth inhibition (%)
The reply should contain only the number, in %.

// below: answered compounds
{"Compound": "Cc1c2cc[n+](Cc3ccc(I)cc3)cc2c(C)c2c1[nH]c1ccccc12", "growth inhibition [%]": 19}
{"Compound": "N#CC(=Nc1ccccc1F)Nc1ccccc1F", "growth inhibition [%]": -4}
{"Compound": "COc1cc(/C=C2\\CCC/C(=C\\c3ccc(O)c(OC)c3)C2=O)ccc1O", "growth inhibition [%]": -1}
{"Compound": "CCCCCCSc1ncnc2[nH]ncc12", "growth inhibition [%]": -3}
{"Compound": "COC(=O)Nc1cn2ccc(C(Cl)=C(Cl)Cl)cc2n1", "growth inhibition [%]": 4}
{"Compound": "Cc1ccc(Cl)cc1NC(=O)OCCN(C)C(=O)Nc1cc(Cl)ccc1C", "growth inhibition [%]": -28}

Report growth inhibition for CN(C)CCCCN1c2ccccc2Sc2ccc(N=[N+]=[N-])cc21
33

Report growth inhibition for CN(C)c1nc(=Nc2cccc(Cl)c2)ss1
11

Report growth inhibition for CCCC/C([O-])=C1/C(=O)N(c2ccccc2)N=C1C.CCCC/C([O-])=C1/C(=O)N(c2ccccc2)N=C1C.[Cu+2]
-3

Report growth inhibition for Nc1ccc(F)cc1S
-16

Report growth inhibition for C=C1CC(CCCl)(c2ccccc2)OC1=O (centres undefined)
-4

Report growth inhibition for O=C1C=C(Cl)C(=O)C(c2ccc(Cl)cc2)=C1
0

Report growth inhibition for O=C(O)c1cc2ccccc2c2c1C(=O)c1ccccc1-2
-9

Report growth inhibition for CCCCCCCCCCCC(O)S(=O)(=O)O (centres undefined)
-1

Report growth inhibition for COc1cc(/C=C2\NC(=O)N(/C=C3\C(=O)Oc4ccccc4C3=O)C2=O)ccc1O
-1

Report growth inhibition for CCCCCCCCCCCCCCCCCC(=O)NCCCN(C)C
-31

Report growth inhibition for CCCCC/C(=C(\C#N)C(=O)OCC)c1ccccc1
-7

Report growth inhibition for O=C1NC(SSC2=NNC3(C(=O)N2)c2ccccc2-c2ccccc23)=NNC12c1ccccc1-c1ccccc12
1

Report growth inhibition for OC(/C=C/c1ccccc1)(Cc1cc(-c2ccccc2)n[nH]1)c1ccccc1 (centres undefined)
9

Each recorded value in this set is attributed to PubChem BioAssay (NCI).
